test: Identification of proteins required for the processing of the EWS-FLI1 nascent transcript; conditions: TC32 Ewing sarcoma NR0B1-luc vs CMV-luc, 48 h; screened at 20 nM (by protocol);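 note: robust z of luciferase light less the median z of siRNAs with the same seed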
The full ranking holds about 59,000 sequences; the median of the read-out is about -0.00055, and the lowest 2% start at about -2. Many of the other results were omitted from the sample, so the lowest values are more common in it than they were.
Value Kind: seed-corrected z-score
Answer using only a numeral; do not append any unit.

UUAAUGGUCCUGUAGUAAC against MTMR1 | 0.139
UACAGGGACACCACCUUGC against BOK | -0.14
UCAGGGCAAAGUGGGAUGA against OXER1 | -2.06

Request: Kindly indicate its recorded seed-corrected z-score. Item: UUCCUUAGCACCAUUGAUG against MMADHC
Response: 1.09

Request: Kindly indicate its recorded seed-corrected z-score. Item: AUCUUUAUCAUUGGGCAGG against SCAF1
Response: -0.941

Request: Kindly indicate its recorded seed-corrected z-score. Item: UUAUCGUCAUGGUAAACAC against GXYLT1
Response: 0.378

Request: Kindly indicate its recorded seed-corrected z-score. Item: AGAGUGACCAGUCCGGUAG against CIDEA
Response: 0.43

Request: Kindly indicate its recorded seed-corrected z-score. Item: AUCGUAGUCAGUGUAUCUG against PPARGC1B
Response: -0.163

Request: Kindly indicate its recorded seed-corrected z-score. Item: UUUGGUGCAAAGUCCAUGC against SKIV2L
Response: -2.51

Request: Kindly indicate its recorded seed-corrected z-score. Item: UGAACAUUGAGUAACGAAC against ORAOV1
Response: 0.0373

Request: Kindly indicate its recorded seed-corrected z-score. Item: UACGUCAAACGGAACUUCC against LRPPRC
Response: -0.194

Request: Kindly indicate its recorded seed-corrected z-score. Item: UAAGAUAUCUGACCACUAG against ZNF620
Response: 0.641

====

A collection of sequences and their measured seed-corrected z-score
experiment: Identification of proteins required for the processing of the EWS-FLI1 nascent transcript; settings: TC32 Ewing sarcoma NR0B1-luc vs CMV-luc, 48 h; screened at 20 nM (by protocol);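 note: robust z of luciferase light less the median z of siRNAs with the same seed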
The full ranking holds about 59,000 sequences; the median of the read-out is about -0.00055, and the lowest 2% start at about -2. The sample as a whole holds a higher share of the lowest values than the screen did.
Answer using only a numeral; do not append any unit.

Answered examples (8):
UGCUUGCUCGCAAAAGUCC against TSHZ1 | 0.387
UCUCGUUCCACCAGAUCCG against OGFR | 2.21
UAACCUUCAACUCGCUGCC against NYNRIN | -1.01
AUCGCUUUGAGGUUAGAGG against SYT3 | -0.878
ACCGUGCCCAGCAUACAUC against LOC541473 | -4.77
UAAGGAAGUAGUCUCGUUU against TUBGCP6 | 0.26
UAGAAUCCCACUGCGAUGC against TTYH3 | -0.966
UUCCAUGUAACCGUCGUUC against SHE | -0.285

Request: Kindly indicate its recorded seed-corrected z-score. Item: UGAUCAUCAGCGGUGAGGC against HMGB3P19
Response: -1.07

Request: Kindly indicate its recorded seed-corrected z-score. Item: UAUAGUAAUCAGCUAGUGG against MED6
Response: -3.7

Request: Kindly indicate its recorded seed-corrected z-score. Item: UAUUCUGAGAUGCGAAGGC against SLC26A11
Response: 0.879

Request: Kindly indicate its recorded seed-corrected z-score. Item: UAGCAGAUAGGUCUCAAUG against MYH11
Response: -0.244

Request: Kindly indicate its recorded seed-corrected z-score. Item: AUAGUUGCAGGAAACUUCU against LOC441907
Response: -2.67

Request: Kindly indicate its recorded seed-corrected z-score. Item: UAUCUUGAGAGGUGCCUCC against THRAP3
Response: 1

Request: Kindly indicate its recorded seed-corrected z-score. Item: UUGGAGGACAGGUCCAAGU against TSKU
Response: 0.336

====

Assay: Identification of proteins required for the processing of the EWS-FLI1 nascent transcript;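 note: robust z of luciferase light less the median z of siRNAs with the same seed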
Settings: TC32 Ewing sarcoma NR0B1-luc vs CMV-luc, 48 h; screened at 20 nM (by protocol)
Protocol: Ewing sarcoma (ES) cells depend on the EWS-FLI1 fusion transcription factor for cell survival. […] Luciferase activity was assessed 48 hours post siRNA-transfection. Twenty microl of serum-free media containing Lipofectamine RNAiMax (0.05 microl) was added to wells containing siRNA (0.8 pmol). […] Luciferase expression was measured using OneGlo (Promega, Madison, WI). […]
Over roughly 59,000 sequences, the read-out has its median near -0.00055; the lowest 2% begin near -2. This excerpt belongs to a sample that is enriched for the lowest values.
A collection of sequences and their measured seed-corrected z-score

Answered examples (8):
UUUUUCUGAACUCUCGUCU against C1orf174 | -1.93
UAUUGUAAGAAAACCCUUG against GNA13 | 1.07
UGUGCGACUGGAGAAUGCG against KRT81 | -0.00183
UAUCUGGUAUGCUACGUCC against CCDC7 | 0.683
UCCCUUCACAAAGAAAGAG against TLDC2 | 0.201
UGAUAGAUGAAUAUCAUCC against KIAA0232 | -0.728
UGUACUGUCAGACUAAUGC against MRGPRX3 | -0.749
UUCUGUAUUCUUCAGCGUG against OR4C16 | -0.379

Request: Kindly indicate its recorded seed-corrected z-score. Item: UUGGGAUAAUGAUUGUUAC against OR10AG1
Response: -0.676

====

test: Identification of proteins required for the processing of the EWS-FLI1 nascent transcript; settings: TC32 Ewing sarcoma NR0B1-luc vs CMV-luc, 48 h; screened at 20 nM (by protocol);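 note: robust z of luciferase light less the median z of siRNAs with the same seed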
In all, about 59,000 sequences were measured (the read-out: median about -0.00055, lowest 2% from about -2 on). Shown is part of a subset that was picked to be rich in the lowest values.
Measured seed-corrected z-score determines class: lower range: < -1; middle range: ≥ -1 and < 0.1; upper range: ≥ 0.1

// below: answered sequences
AAAGCAGUUGGAACCGUUG against KRTAP24-1 | upper range
AUAAGAACAACAAAUACAC against C2CD4A | upper range
UUCGGUUGAACCUUGUCUG against ORC2 | middle range
UUAGGUGCACCAGUAAGAG against PEX2 | lower range
UCUGCUUUGCAAAUAGCCG against SRD5A1 | lower range
AUUCUGUUCAAACAUCUGG against EXOC3 | lower range

Request: Assign a bin to UUUGUGCAUGCUGUCGUUC against TNIP2
Response: middle range

Request: Assign a bin to UAAGUAUAACCAUCUGUUC against OR6C2
Response: upper range

Request: Assign a bin to AUGGGUCAGAGAGGCAAGG against EXOSC5
Response: lower range

Request: Assign a bin to ACGGUUUUUACAUCGAUUC against PTPRO
Response: upper range

Request: Assign a bin to UGACGUACCAGCACUGCGU against ADM2
Response: lower range

Request: Assign a bin to UCUUUGCUAAGCUCGGAGG against RAD51C
Response: lower range

Request: Assign a bin to UUUGAGUCUAGUGGGAUAG against SLC22A10
Response: upper range

Request: Assign a bin to UGCUCUCUCAGAAUCUCGC against SPA17
Response: middle range

Request: Assign a bin to AGAGGUUGUACAUUCUUCG against SESN2
Response: lower range

====

experiment: Identification of proteins required for the processing of the EWS-FLI1 nascent transcript; conditions: TC32 Ewing sarcoma NR0B1-luc vs CMV-luc (EWS-FLI1 target promoter against control promoter), 48 h; screened at 20 nM (by protocol);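 note: robust z of luciferase light less the median z of siRNAs with the same seed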
The full ranking holds about 59,000 sequences; the median of the read-out is about -0.00055, and the lowest 2% start at about -2. Only a selection was taken, and the lowest values are over-represented in it overall.
A collection of sequences and their measured seed-corrected z-score

Request: Kindly indicate its recorded seed-corrected z-score. Item: UAAUUGAACUGAUCCAGUC against WDR12
Response: -0.242

Request: Kindly indicate its recorded seed-corrected z-score. Item: UGUUGUAGCAGAAUGAGGA against ARC
Response: -3.81

Request: Kindly indicate its recorded seed-corrected z-score. Item: UACGUUAAAAGGCAGGACA against CDKN2A
Response: -0.998

Request: Kindly indicate its recorded seed-corrected z-score. Item: AAUCAUGCCCUUUUUGUGG against FPR2
Response: -2

Request: Kindly indicate its recorded seed-corrected z-score. Item: UGAGGACAAAGAAUCUUCC against MRPS18B
Response: 0.518

Request: Kindly indicate its recorded seed-corrected z-score. Item: GUUACAUACCUUUUUCUCU against GTF2H2B
Response: 0.209

Request: Kindly indicate its recorded seed-corrected z-score. Item: UGACGAAAUAGUAGAAGUG against MOB3A
Response: -0.387

Request: Kindly indicate its recorded seed-corrected z-score. Item: UUUAUGGAUCUAAUUGUCG against CBWD1
Response: 0.289
